Recorded IC50 by entry
# target entity: Human immunodeficiency virus type 1 integrase (Human immunodeficiency virus 1)
# Sequence (Q7ZJM1 whole entry): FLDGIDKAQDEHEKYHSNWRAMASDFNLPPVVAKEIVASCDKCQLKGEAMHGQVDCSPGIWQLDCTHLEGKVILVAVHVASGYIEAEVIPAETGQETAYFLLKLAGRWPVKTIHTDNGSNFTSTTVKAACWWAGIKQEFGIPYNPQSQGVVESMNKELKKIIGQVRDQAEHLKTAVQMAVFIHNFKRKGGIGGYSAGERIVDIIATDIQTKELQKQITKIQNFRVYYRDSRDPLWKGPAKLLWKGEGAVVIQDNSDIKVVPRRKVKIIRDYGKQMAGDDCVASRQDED
# test details: Inhibition of wild-type HIV1 integrase strand transfer activity using [32P]-labeled linear oligonucleotide substrate by polyacrylamide gel electrophoresis
readout: IC50 (µM)

                                   compound  readout  unit_abbreviation  data_value
0  O=C(CC(=O)c1ccc(C(F)(F)F)cc1)C(=O)NC1CCC(NC(=O)C(=O)CC(=O)c2ccc(C(F)(F)F)cc2)CC1 (stereo not drawn)     IC50                 µM          41
1  COc1cccc(C(=O)CC(=O)C(=O)NC2CCC(NC(=O)C(=O)CC(=O)c3cccc(OC)c3)CC2)c1 (stereo not drawn)     IC50                 µM          26
2  O=C(CC(=O)c1ccc(F)cc1)C(=O)NC1CCC(NC(=O)C(=O)CC(=O)c2ccc(F)cc2)CC1 (stereo not drawn)     IC50                 µM        35.5
3  COc1cccc(C(=O)CC(=O)C(=O)NC2CCN(C(=O)C(=O)CC(=O)c3cccc(OC)c3)CC2)c1     IC50                 µM          53
4  O=C(CC(=O)c1cccc(OCc2ccccc2)c1)C(=O)N1CCN(C(=O)C(=O)CC(=O)c2cccc(OCc3ccccc3)c2)CC1     IC50                 µM         1.8
5  O=C(CC(=O)c1ccc(F)cc1)C(=O)NC1CCN(C(=O)C(=O)CC(=O)c2ccc(F)cc2)CC1     IC50                 µM          88
6          Cc1cc(C(=O)/C=C(\O)C(=O)O)ccc1Cl     IC50                 µM         4.7
7  COC(=O)/C(O)=C/C(=O)c1cccc(NC(=O)OCc2ccccc2)c1     IC50                 µM           7

----------
# target entity: UniProt Q7ZJM1
# test details: Inhibition of wild-type HIV1 integrase 3'-processing activity using [32P]-labeled linear oligonucleotide substrate by polyacrylamide gel electrophoresis
pIC50: −log10 of the molar value.
readout: pIC50

>>> df
                                    molecule  data_value
 0  COC(=O)/C(O)=C/C(=O)c1cccc(N(Cc2ccccc2)Cc2ccccc2)c1      < 4.00
 1  CCCCCC12CCC(C(=O)Nc3cccc(C(=O)CC(=O)C(=O)O)c3)(CC1)CC2      < 4.00
 2           COc1cccc(C(=O)/C=C(\O)C(=O)O)c1      < 4.00
 3  O=C(CC(=O)c1ccccc1F)C(=O)NC1CCC(NC(=O)C(=O)CC(=O)c2ccccc2F)CC1 (stereo not drawn)      < 4.00
 4  COC(=O)/C(O)=C/C(=O)c1cccc(Cc2ccccc2F)c1        4.59
 5  O=C(CC(=O)c1ccccc1Cl)C(=O)NC1CCC(NC(=O)C(=O)CC(=O)c2ccccc2Cl)CC1 (stereo not drawn)        4.04
 6  O=C(CC(=O)c1ccccc1Cl)C(=O)N1CCN(C(=O)C(=O)CC(=O)c2ccccc2Cl)CC1      < 4.00
 7  COC(=O)/C(O)=C/C(=O)c1ccc(OC)c(OCc2ccccc2)c1      < 4.00
 8  CC(C)(C)OC(=O)N1CCC(NC(=O)/C(O)=C/C(=O)c2ccc(F)cc2)CC1      < 4.00
 9  O=C(CC(=O)c1cccc(OCc2ccccc2)c1)C(=O)NC1CCN(C(=O)C(=O)CC(=O)c2cccc(OCc3ccccc3)c2)CC1        4.64
10  COc1cccc(C(=O)CC(=O)C(=O)NC2CCN(C(=O)C(=O)CC(=O)c3cccc(OC)c3)CC2)c1      < 4.00
11  O=C(CC(=O)c1ccc(C(F)(F)F)cc1)C(=O)N1CCN(C(=O)C(=O)CC(=O)c2ccc(C(F)(F)F)cc2)CC1      < 4.00
12  O=C(CC(=O)c1cccc(OCc2ccccc2)c1)C(=O)OC1CCN(C(=O)C(=O)CC(=O)c2cccc(OCc3ccccc3)c2)CC1        4.04
13  O=C(CC(=O)c1ccc(F)cc1)C(=O)NC1CCC(NC(=O)C(=O)CC(=O)c2ccc(F)cc2)CC1 (stereo not drawn)      < 4.00
14     O=C(O)/C(O)=C/C(=O)c1ccc(C(F)(F)F)cc1      < 4.00
15  COc1cccc(C(=O)CC(=O)C(=O)N2CCN(C(=O)C(=O)CC(=O)c3cccc(OC)c3)CC2)c1      < 4.00
16  COc1cccc(C(=O)CC(=O)C(=O)NC2CCC(NC(=O)C(=O)CC(=O)c3cccc(OC)c3)CC2)c1 (stereo not drawn)      < 4.00
17             O=C(O)/C(O)=C/C(=O)c1ccccc1Cl      < 4.00

Where do the numbers come from? From ChEMBL document CHEMBL1155930.
